biological target: full length human PD-L1 on cells (human, UniProt Q9NZQ7 19-290); test: cell-based or functional assay
Sequence (Q9NZQ7 19-290 limits assumed): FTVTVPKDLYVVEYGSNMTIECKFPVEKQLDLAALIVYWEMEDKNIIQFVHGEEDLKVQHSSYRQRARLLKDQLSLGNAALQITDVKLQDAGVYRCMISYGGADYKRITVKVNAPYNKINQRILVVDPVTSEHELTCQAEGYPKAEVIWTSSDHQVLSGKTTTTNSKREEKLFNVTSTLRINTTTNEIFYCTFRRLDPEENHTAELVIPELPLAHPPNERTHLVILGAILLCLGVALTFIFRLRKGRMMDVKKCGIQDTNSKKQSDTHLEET
Assign IFN-γ (pg/mL), PBMC stimulation, 0.01 µg/mL mAb to each entry below.
Just the number in pg/mL, nothing appended.

Task: Output IFN-γ (pg/mL), PBMC stimulation, 0.01 µg/mL mAb of chimeric anti-PD-L1 antibody 73D3G2 (antibody, V domains shown, Purified from hybridoma of Harbour H2L2 mice: human variable regions, rat constant regions) VH: EVQLVESGGGLVQPGGSLRLSCAASGFTFNTYWMNWVRQAPGRGLEWVANIKQDGGEKYYVDSVKGRFTISRDNAKNSLYLQMNSLRAEDTAMYYCARDGRSWYPDAFDIWGQGTVVTVSS VL: DIQMTQSPSTLSASVGDRVTITCRASQSISTWLAWYQQKLGKAPKLLIYEVSILESGVPSRFSGSGSGTEFTLTISSLQPDDFATYYCQQYHSFSSFGGGTRVEIK
Result: 3280

Task: State its IFN-γ (pg/mL), PBMC stimulation, 0.01 µg/mL mAb: chimeric anti-PD-L1 antibody 127D2F3 (antibody, V domains shown, Purified from hybridoma of Harbour H2L2 mice: human variable regions, rat constant regions) VH: EVQLVESGGGLVQPGGSLRLSCVASGFTFSSYWMSWVRQAPGKGLEWVANIKQDGSEKYYVDSVKGRLTISRDNAKNSLYLQMKSLRAEDTAVYYCARDPIYSSYFDYWGQGILVTVSS VL: DIQMTQSPSSLSASVGDRVTITCRASQSISNYLNWYQQKPGKAPKLLIYAASSLQSGVPSRFSGSGSGTDFTLTISSLQPEDFAAYYCQQSYGIPFTFGPGTKVDIK
Result: 7030

Task: Quote IFN-γ (pg/mL), PBMC stimulation, 0.01 µg/mL mAb reported for chimeric anti-PD-L1 antibody 78A11F6 (antibody, V domains shown, Purified from hybridoma of Harbour H2L2 mice: human variable regions, rat constant regions) VH: EVQLVESGGGLVQPGGSLRLSCAASGITFSSYWMSWVRQTPGKGLEWVANIKQDGSEKYYVKSVKGRFTISRDNAKNSLYLQMNSLRAEDTAVYYCVRDRAVPGTGAFDIWGQGTMVIVSS VL: DIQMTQSPSTLSASVGDRVTITCRASQSISNWLAWYQQKPGKAPKLLIYKASSLESGVPSRFSGSGSGTEFTLTISSLQPDDFATYYCQQYDSSLFTFGQGTKLEIK please.
Result: 11100

Task: Supply measured IFN-γ (pg/mL), PBMC stimulation, 0.01 µg/mL mAb of chimeric anti-PD-L1 antibody 105C5D7 (antibody, V domains shown, Purified from hybridoma of Harbour H2L2 mice: human variable regions, rat constant regions) VH: EVQLVESGGGLVQPGGSLRLSCAASGFTFSSYWMSWVRQAPGKGLEWVANIKQDGNEKYYVDSVKGRFTISRDNAKNSLYLQMNSLRAEDTAVYYCARNIKWGDAFDIWGQGTMVTVSS VL: DIQMTQSPSSLSASVGDRVTITCRASQSISSYLNWYQQKPGKAPKLLIYAASSLQSGVPSRFSGSGSGTDFTLTISSLQPEDFAIYSCQQSYSIPLTFGGGTKVEIK in your reply.
Result: 3380
